- assay: Compound was tested for the inhibition of Leishmania mexicana GAPDH(glyceraldehyde-3-phosphate dehydrogenase)
reported.property: pKi
Note on pKi: it is the negative log10 of concentration, concentration in mol/L.

CC(C)=CCNc1ncnc2c1nc(-c1cccs1)n2C1O[C@H](CO)[C@@H](O)[C@H]1O (stereo partly specified) yielded pKi of 4.74

---

- assay: Inhibition of Leishmania mexicana GAPDH(glyceraldehyde-3-phosphate dehydrogenase)
reported.property: pKi
Note on pKi: it is the negative log10 of concentration, concentration in mol/L.

Study these solved cases before continuing.
compound	experimental.value
NC(=O)c1ccccc1C(=O)NC[C@H]1OC(n2cnc3c(NCc4ccccc4)ncnc32)[C@H](O)[C@@H]1O (stereo partly drawn)	3.10
Nc1ncnc2c1ncn2C1O[C@H](CNC(=O)c2ccccc2)[C@@H](O)[C@H]1O (stereo partly drawn)	2.48
CC(C)Nc1nc2c(N)ncnc2n1C1O[C@H](CO)[C@@H](O)[C@H]1O (stereo partly drawn)	2.82
O=C1c2ccccc2C(=O)N1C[C@H]1OC(n2cnc3c(NCc4ccccc4)ncnc32)[C@H](O)[C@@H]1O (stereo partly drawn)	2.40
Nc1ncnc2c1ncn2[C@@H]1O[C@H](CO)[C@@H](O)[C@H]1O [ADENOSINE]	2.60

OC[C@H]1O[C@@H](n2cnc3c(NCc4ccccc4)ncnc32)[C@H](O)[C@@H]1O [N6-BENZYLADENOSINE] yielded pKi of 2.55

`Nc1ncnc2c1nc(-c1cccs1)n2[C@@H]1O[C@H](CO)[C@@H](O)[C@H]1O` yielded pKi of 3.52

CC(C)=CCNc1ncnc2c1nc(-c1cccs1)n2C1O[C@H](CO)[C@@H](O)[C@H]1O (stereo partly drawn) yielded pKi of 5.05
